Assay: ACEA_ER_80hr: ACEA Biosciences xCELLigence Real-Time Cell Analysis on Estrogen Receptor Agonism for Proliferation (AID 2282667)
Details: T47D proliferation, impedance (xCELLigence), 80 h
Description: ACEA_ER is a cell-based, single-readout assay that uses T47D, a human breast cell line, with measurements taken at 80 hours after chemical dosing in a 96-well plate, although TO2 (mc0.srcf) used a 384-well plate. Differences in plate size can be ignored given data normalization.ACEA_ER_80hr is one of two assay component(s) measured or calculated from the ACEA_ER assay. […]
Results filed as inconclusive are left out. The source made the active and inactive calls. The calls were made as follows: active = hit-call score of the fitted dose curve at least 0.9, where 1 is the maximum; inconclusive = response in the unintended direction; inactive = score below 0.9.
Classes used: class 1 for active, class 0 for inactive

In [3]: df
Out[3]:
                                    compound  qualitativelabel
 0     O=[N+]([O-])c1ccc(O)c([N+](=O)[O-])c1           class 1
 1                            CCCCOCCOC(C)=O           class 0
 2  CC(C)=C[C@@H]1[C@@H](C(=O)OCc2coc(Cc3ccccc3)c2)C1(C)C           class 0
 3                    O=Cc1cccc(Oc2ccccc2)c1           class 0
 4                     CC(C)c1cccc(C(C)C)c1O           class 0
 5        O=[N+]([O-])c1c(Cl)c(Cl)cc(Cl)c1Cl           class 0
 6  Clc1ccc(COC(Cn2ccnc2)c2ccc(Cl)cc2Cl)cc1 (stereo unspecified)           class 0
 7  CC1(C)CCC(Cc2ccc(Cl)cc2)C1(O)Cn1cncn1 (stereo unspecified)           class 0
 8                       C1CCC(NC2CCCCC2)CC1           class 0
 9                   CCOP(=O)(CN(CCO)CCO)OCC           class 0
10  CCC[CH2][Sn]([CH2]CCC)([CH2]CCC)[O]C(=O)c1ccccc1           class 0

====

Read-out: Bcl-2 (BAX) gene, BAX (gene 581)
Assay: LTEA_HepaRG_BAX: Life Technologies and Expression Analysis (LTEA) Assay for Bcl-2 (BAX) gene using HepaRG (AID 2283470)
Details: mRNA level, 48 h; actives raise or lower the signal
Active and inactive are the calls of the source. How the source made its calls: active means hit-call score of the fitted dose curve at least 0.9, where 1 is the maximum; inactive means score below 0.9.
Classes used: active, inactive

                                    compound  qualitativelabel
 0                                Cc1ccccc1N          inactive
 1                       CCCCCCCCc1ccc(O)cc1          inactive
 2                                   NC(=O)O          inactive
 3                               ClCC(Cl)CCl            active
 4  CCN1CCC2(CC1)COc1cc3c(cc12)N(C(=O)c1ccc(-c2ccc(-c4nnc(C)o4)cc2C)cc1)CC3          inactive
 5                      CC(C)(C)c1cc(O)ccc1O          inactive
 6  CCC(=O)C(CC(C)N(C)C)(c1ccccc1)c1ccccc1 (stereo not given)          inactive
 7           CCC(C)(C)c1ccc(O)c(C(C)(C)CC)c1          inactive
 8               CC(C)(C)CC(C)(C)c1ccc(O)cc1          inactive
 9               O=c1[nH]c(=O)[nH]c(=O)[nH]1          inactive
10                       C=CC(=O)OCCCCCC(C)C          inactive
11             CCOP(=S)(OCC)SCSP(=S)(OCC)OCC          inactive
12                            Cn1sc(Cl)cc1=O          inactive
13  O=C(O)C(F)(F)C(F)(F)C(F)(F)C(F)(F)C(F)(F)C(F)(F)F          inactive
14  O=C(O)C(F)(F)C(F)(F)C(F)(F)C(F)(F)C(F)(F)C(F)(F)C(F)(F)C(F)(F)C(F)(F)C(F)(F)F          inactive
15                                  CN(C)N=O          inactive
16  ClC1(Cl)C2(Cl)C3(Cl)C4(Cl)C(Cl)(Cl)C5(Cl)C3(Cl)C1(Cl)C5(Cl)C24Cl (stereo not given)          inactive
17  O=C1C2(Cl)C3(Cl)C4(Cl)C(Cl)(Cl)C5(Cl)C3(Cl)C1(Cl)C5(Cl)C24Cl (stereo not given)            active
18  C[C@@H]1C[C@@H]([C@H](O)CC2CC(=O)NC(=O)C2)C(=O)[C@@H](C)C1            active
19                   CC(=O)[O][Hg][c]1ccccc1            active

====

Read-out: Intercellular Adhesion Molecule 1 (ICAM1), ICAM1 (gene 3383)
Assay: BSK_3C_ICAM1: BioMAP Diversity Plus: 3C Assay for Intercellular Adhesion Molecule 1 (ICAM1) Biomarker Activity (AID 2283003)
Details: primary human endothelial cells (HUVEC); actives raise or lower the signal
Active and inactive are the calls of the source. Rule for the calls: active = hit-call score of the fitted dose curve at least 0.9, where 1 is the maximum; inactive = score below 0.9.
Classes used: 1 (yes) for active, 0 (no) for inactive

>>> print(df.to_string())
                                   compound  qualitativelabel
0  CCOP(=S)(OCC)Oc1ccc(S(C)=O)cc1 (stereo unspecified)            0 (no)
1             Nc1ccc(-c2ccc(N)c(Cl)c2)cc1Cl            0 (no)
2  O=C(Nc1ccc2[nH]ccc2c1)c1cc2cc(F)ccc2n1Cc1cccc(F)c1           1 (yes)
3  C[C@]12CCC(=O)C[C@@H]1CC[C@@H]1[C@@H]2CC[C@]2(C)[C@@H](O)CC[C@@H]12            0 (no)
4                      CC1(C)Cc2cccc(O)c2O1            0 (no)
5  O=C(O)C(F)(F)C(F)(F)C(F)(F)C(F)(F)C(F)(F)C(F)(F)F            0 (no)

====

Assay: ATG_M_19_TRANS: Attagene TRANS-FACTORIAL HepG2 Assay for M19 Transcription Factor (Internal Marker) (AID 2282974)
Conditions: HepG2 Attagene TRANS-FACTORIAL M19 internal marker reporter
Results filed as inconclusive are left out. Activity calls are given as the source filed them. Rule for the calls: active = hit-call score of the fitted dose curve at least 0.9, where 1 is the maximum; inconclusive = response in the unintended direction; inactive = score below 0.9.
measuredAttribute: outcome

In [3]: df
Out[3]:
                                    compound  obsvalue
 0                         CC(C)(OO)c1ccccc1  inactive
 1  CC(=O)C(Cl)C(=O)N(C)C (configuration not stated)  inactive
 2                           COc1ccc(C=O)cc1  inactive
 3  Fc1ccc(C2(Cn3cncn3)OC2c2ccccc2Cl)cc1 (configuration not stated)  inactive
 4                     CC(C)c1cccc(C(C)C)c1O  inactive
 5                    COS(=O)(=O)c1ccc(C)cc1  inactive
 6                                 NNC(=S)NN  inactive
 7                       CCCCCCCCc1ccc(O)cc1  inactive
 8                         CC(C)c1ccc(CO)cc1  inactive
 9        O=[N+]([O-])c1c(Cl)c(Cl)cc(Cl)c1Cl  inactive
10                         COc1ccc(C=O)cc1OC  inactive
11           CCC(C)(C)c1ccc(O)c(C(C)(C)CC)c1  inactive
12                    O=C(Cc1ccccc1)c1ccccc1  inactive
13               CC(C)(C)CC(C)(C)c1ccc(O)cc1  inactive
14             O=C1C(Cl)=C(Cl)C(=O)c2ccccc21  inactive
15             COP(=S)(OC)Oc1c(Cl)cc(C)cc1Cl  inactive
16  CC12CC1(C)C(=O)N(c1cc(Cl)cc(Cl)c1)C2=O (configuration not stated)  inactive
17                                       CNC  inactive
18  CCSC(C)CC1CC(=O)C(C(CC)=NOC/C=C/Cl)=C(O)C1 (configuration not stated)  inactive
19                            CCCCOCCOC(C)=O  inactive
20                               CCc1ccccc1C  inactive
21                               CCc1ccccc1N  inactive
22  CC(C)(c1ccc(OCC2CO2)cc1)c1ccc(OCC2CO2)cc1 (configuration not stated)  inactive
23   CC(Br)C(=O)O (configuration not stated)  inactive
24                                   NC(=O)O  inactive
25  CC(=[OH+])/C=C(/C)[O-].CC(=[OH+])/C=C(/C)[O-].CC(=[OH+])/C=C(/C)[O-].[Fe]  inactive
26                                 C=C(C)C#N  inactive
27  CCOP(=S)(OCC)Oc1ccc(S(C)=O)cc1 (configuration not stated)  inactive
28                         O=C(O)C(Cl)(Cl)Cl  inactive
29                           Nc1cccc2ccccc12  inactive
30                          COC(=O)Cc1ccccc1  inactive
31                             C=CC(=O)N(C)C  inactive
